measurementNotes: In vitro dissociation of the water soluble taxane derivatives in blood plasma of rabbit
Type: in vitro ADME, New Zealand white rabbits
conditionInfo: 37° C., 20 min
Listed here: items and their measured dissociation percent.
measureName: dissociation percent (%)

>>> observed("CC(=O)O[C@@]12CO[C@@H]1C[C@H](O)[C@@]1(C)C(=O)[C@H](O)C3=C(C)[C@@H](OC(=O)[C@H](OC(=O)[C@@H](F)CCN(C)C)[C@@H](NC(=O)OC(C)(C)C)c4ccccc4)C[C@@](O)([C@@H](OC(=O)c4ccccc4)[C@H]21)C3(C)C.CS(=O)(=O)O")
93.1
>>> observed("CC(=O)O[C@H]1C(=O)[C@@]2(C)[C@H]([C@H](OC(=O)c3ccccc3)[C@]3(O)C[C@H](OC(=O)[C@H](OC(=O)[C@H](F)CCN(C)C)[C@@H](NC(=O)c4ccccc4)c4ccccc4)C(C)=C1C3(C)C)[C@]1(OC(C)=O)CO[C@@H]1C[C@@H]2O.CS(=O)(=O)O")
98.4

====

measurementNotes: In vitro dissociation of the water soluble taxane derivatives in blood plasma of rabbit
Assay type: in vitro ADME, New Zealand white rabbits
conditionInfo: 37° C., 20 min
Protocol: The obtained water soluble taxane derivatives were formulated as 0.2 mg/ml aqueous solutions. […] After 5 min, 20 min and 60 min of incubation, 0.2 ml of solutions were respectively taken from each of the samples, and added to acetonitrile (0.4 ml) cooled to −20° C. for precipitation of protein.
Counter-ions that a name gives are not always drawn.
Lab note: anything with dissociation percent at or over 90% counts as Met; the rest go in Not met.

>>> classassignment("CCN(CC)CC[C@](C)(C(=O)O[C@@H](C(=O)O[C@H]1C[C@@]2(O)[C@@H](OC(=O)c3ccccc3)[C@@H]3[C@]4(OC(C)=O)CO[C@@H]4C[C@H](OC)[C@@]3(C)C(=O)[C@H](OC)C(=C1C)C2(C)C)[C@@H](NC(=O)OC(C)(C)C)c1ccccc1)C(F)(F)F.CS(=O)(=O)O [Compound 11]")
"Not met"
>>> classassignment("CC(=O)O[C@H]1C(=O)[C@@]2(C)[C@H]([C@H](OC(=O)c3ccccc3)[C@]3(O)C[C@H](OC(=O)[C@H](OC(=O)C(F)CCN(C)C)[C@@H](NC(=O)c4ccccc4)c4ccccc4)C(C)=C1C3(C)C)[C@]1(OC(C)=O)CO[C@@H]1C[C@@H]2O.Cl (stereo partly shown) [Compound 03]")
"Met"
>>> classassignment("CC(=O)O[C@H]1C(=O)[C@@]2(C)[C@H]([C@H](OC(=O)c3ccccc3)[C@]3(O)C[C@H](OC(=O)[C@H](OC(=O)[C@H](F)CCN(C)C)[C@@H](NC(=O)c4ccccc4)c4ccccc4)C(C)=C1C3(C)C)[C@]1(OC(C)=O)CO[C@@H]1C[C@@H]2O.Cl [Compound 01]")
"Met"
>>> classassignment("CC(=O)O[C@H]1C(=O)[C@@]2(C)[C@H]([C@H](OC(=O)c3ccccc3)[C@]3(O)C[C@H](OC(=O)[C@H](OC(=O)[C@@H](F)CCN(C)C)[C@@H](NC(=O)c4ccccc4)c4ccccc4)C(C)=C1C3(C)C)[C@]1(OC(C)=O)CO[C@@H]1C[C@@H]2O.CS(=O)(=O)O [Compound C2]")
"Met"
>>> classassignment("CO[C@H]1C(=O)[C@]2(C)[C@@H](OC)C[C@H]3OC[C@@]3(OC(C)=O)[C@H]2[C@H](OC(=O)c2ccccc2)[C@]2(O)C[C@H](OC(=O)[C@H](OC(=O)[C@@H](F)CCN(C)C)[C@@H](NC(=O)OC(C)(C)C)c3ccccc3)C(C)=C1C2(C)C.CS(=O)(=O)O [Compound C8]")
"Met"
>>> classassignment("CO[C@H]1C(=O)[C@]2(C)[C@@H](OC)C[C@H]3OC[C@@]3(OC(C)=O)[C@H]2[C@H](OC(=O)c2ccccc2)[C@]2(O)C[C@H](OC(=O)[C@H](OC(=O)[C@H](F)CCN(C)C)[C@@H](NC(=O)OC(C)(C)C)c3ccccc3)C(C)=C1C2(C)C [Compound 07, hydrochloride]")
"Met"
